- Tested on: hT40, dGA, dGAE and truncated tau fragments
- METHOD SUMMARY: Binding ELISA / epitope mapping of anti-tau scAbs with truncated tau proteins and 13mer peptides
- Set-up: species or system human
- CONDITIONS: residue numbers of SEQ ID NO: 1 (hT40); CDR Tables 1-11
PROPERTY LABEL: Epitope

Prompt: Please give the documented Epitope of CB3: anti-tau core clone, Table 10; SEQ ID NO: 370 (protein, CB3 amino acid sequence) scFv: QVQLQESGPSLVKPSQTLSLTCTVSGFSLSSVAVNWVRQAPGKVPEWLGGIISNGGTGYNPALKSRLSITRDTSKSQVSLALTHVTTEDTAVYYCGRGVEWEGSMDYLGPGLLVTVSSEGKSSGSGSETKVDDQSVLTQPSSVSGFLGQRVTITCSGSSSNVGAGSYVGWYQQVPGSGLRILIYGATKRASGLPDRFSGSRSGNTATLTISSLQAEDEADYYCVSYQTDFTLVFGSGTRLTVLG
Response: 360-390
